Target: Sialate O-acetylesterase (Homo sapiens)
Assay: blockers of sialate O-acetylesterase activity-probe labeling – biochemical, fluorescence polarization, FP-Rh probe, 1536-well HTS, primary screen (AID 1053197);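 further: 0% = plate median of compound wells and 100% = probe without SIAE protein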
Conditions: SIAE FP-Rh probe binding, at 9.66 µM
The whole screen tested about 370,000 compounds, of which about 2,600 (0.7%) were called active.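 How the source made its calls: active means inhibition above a cutoff: mean of compounds within the control limits plus 3 SD of those (cut at about 17% in these data); inactive means the rest.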 This excerpt belongs to a sample that is enriched for actives.
Outcomes: TRUE = active, FALSE = inactive

                                   compound  answer_label
0  COC(=O)C(C)Sc1ccc2nnc(-c3cccc(F)c3)n2n1 (stereo not given)          TRUE
1  CCOC(=O)CNC(=O)CSc1ccc2nnc(-c3cccnc3)n2n1         FALSE
2  C=CCN1C(=O)[C@@H](CC(=O)N2CCN(C(=O)OCC)CC2)[C@]2(C(=O)OCC)CCCCC/C=C/12         FALSE
3           CCOc1ccc(-c2nnc3ccc(SC)nn23)cc1         FALSE
4  C=CCN1C(C(=O)OC)CN(Cc2cn(Cc3ccccc3)nn2)CCS1(=O)=O (stereo not given)         FALSE

* * *

Target: Sialate O-acetylesterase (Homo sapiens) (UniProt Q9HAT2)
Sequence (Q9HAT2 whole entry, looked up): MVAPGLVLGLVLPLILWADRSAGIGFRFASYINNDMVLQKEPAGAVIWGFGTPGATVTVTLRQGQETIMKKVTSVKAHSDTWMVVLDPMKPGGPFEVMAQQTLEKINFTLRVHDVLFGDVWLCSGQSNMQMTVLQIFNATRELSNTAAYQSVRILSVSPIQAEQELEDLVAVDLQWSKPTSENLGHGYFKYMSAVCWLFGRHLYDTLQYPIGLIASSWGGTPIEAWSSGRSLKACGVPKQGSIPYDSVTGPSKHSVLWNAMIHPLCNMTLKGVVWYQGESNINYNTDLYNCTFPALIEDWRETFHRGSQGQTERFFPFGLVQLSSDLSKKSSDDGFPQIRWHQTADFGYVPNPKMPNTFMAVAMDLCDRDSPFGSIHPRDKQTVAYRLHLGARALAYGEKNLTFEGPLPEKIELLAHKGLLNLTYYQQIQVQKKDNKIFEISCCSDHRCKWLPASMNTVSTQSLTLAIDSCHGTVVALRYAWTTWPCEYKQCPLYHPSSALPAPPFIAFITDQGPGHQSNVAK
Test: blockers of sialate O-acetylesterase activity-probe labeling – biochemical, fluorescence polarization, FP-Rh probe, 1536-well HTS, primary screen (AID 1053197);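 further: 0% = plate median of compound wells and 100% = probe without SIAE protein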
Conditions: SIAE FP-Rh probe binding, at 9.66 µM, hits give high values
In all, about 370,000 compounds went through this assay and about 2,600 (0.7%) were called active. Only a selection was taken, and actives are over-represented in it overall.
Quick reference for inhibition among some compounds
REPORTED_PROPERTY: inhibition

                                   compound                           subject_of_test           reported
0             CC(=O)Nc1cccc([N+](=O)[O-])c1  Sialate O-acetylesterase (Homo sapiens) (UniProt Q9HAT2)     19.3% (active)
1  COc1ccc(C(=O)CSc2nnc(-c3cnccn3)n2-c2ccc(C)cc2)cc1  Sialate O-acetylesterase (Homo sapiens) (UniProt Q9HAT2)   4.14% (inactive)
2  CCCn1c(O)c(CN2CCCC(C)C2)c(C)c(C#N)c1=O (stereo unspecified)  Sialate O-acetylesterase (Homo sapiens) (UniProt Q9HAT2)     43.7% (active)
3  CS(=O)(=O)N(CC(=O)Nc1ccc(F)cc1F)c1cccc([N+](=O)[O-])c1  Sialate O-acetylesterase (Homo sapiens) (UniProt Q9HAT2)   5.36% (inactive)
4  CCN(C(=O)COC(=O)C1CCN(S(=O)(=O)c2ccc(C)c(C)c2)CC1)C1CCS(=O)(=O)C1 (stereo unspecified)  Sialate O-acetylesterase (Homo sapiens) (UniProt Q9HAT2)     26.2% (active)
5       Cc1c(CN2CCCCC2)c(O)n(CCO)c(=O)c1C#N  Sialate O-acetylesterase (Homo sapiens) (UniProt Q9HAT2)  -5.55% (inactive)

* * *

Quick list: inhibition per entry.
Molecular target: Sialate O-acetylesterase (Homo sapiens) (UniProt Q9HAT2)
Test: blockers of sialate O-acetylesterase activity-probe labeling – biochemical, fluorescence polarization, FP-Rh probe, 1536-well HTS, primary screen (AID 1053197);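 further: 0% = plate median of compound wells and 100% = probe without SIAE protein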
Details: SIAE FP-Rh probe binding, at 9.66 µM, hits give high values
Out of some 370,000 compounds screened, about 2,600 (0.7%) were called active. For the sample, actives were picked, then their nearest neighbours and some compounds at random.
REPORTED_PROPERTY: inhibition (%)

>>> print(df.to_string())
                                smiles_input                           subject_of_test  reported
 0  CCC(=O)Nc1ccc(C(=O)CSc2nnc(CNc3ccc(Cl)cc3)o2)cc1OC  Sialate O-acetylesterase (Homo sapiens) (UniProt Q9HAT2)     -0.55
 1  Cc1ccc(-c2csc(NCCc3nc4cc(Cl)c(Cl)cc4n3CCOCCO)n2)cc1  Sialate O-acetylesterase (Homo sapiens) (UniProt Q9HAT2)      1.85
 2  CCOc1ccc(Nc2nc(Cc3nnc(SCC(=O)NC4CCCC4)n3C)cs2)cc1  Sialate O-acetylesterase (Homo sapiens) (UniProt Q9HAT2)      19.1
 3     CCOc1cccc(-c2nnc(SCC(=O)NC3CC3)n2C)c1  Sialate O-acetylesterase (Homo sapiens) (UniProt Q9HAT2)     -3.03
 4  CCN(CC)S(=O)(=O)c1cc(C(=O)Nc2cc(S(=O)(=O)N3CCOCC3)ccc2N2CCCC2)ccc1F  Sialate O-acetylesterase (Homo sapiens) (UniProt Q9HAT2)      1.03
 5  CC(=O)Nc1ccc(C(=O)CSc2nnc(Cc3ccccc3)o2)cc1  Sialate O-acetylesterase (Homo sapiens) (UniProt Q9HAT2)     -1.29
 6  O=C(Nc1ccccc1N1CCCC1)c1ccc(F)c(S(=O)(=O)N2CCOCC2)c1  Sialate O-acetylesterase (Homo sapiens) (UniProt Q9HAT2)      20.5
 7        Cc1ccc(Nc2nc(-c3ccc(O)cc3O)cs2)nc1  Sialate O-acetylesterase (Homo sapiens) (UniProt Q9HAT2)      20.7
 8          Cc1c[nH]c2cccc(-c3ccc(Cl)cc3)c12  Sialate O-acetylesterase (Homo sapiens) (UniProt Q9HAT2)      4.94
 9            CC(=O)Nc1cnc(-c2ccc(O)cc2C)cn1  Sialate O-acetylesterase (Homo sapiens) (UniProt Q9HAT2)      1.05
10  CCOc1ccc(Nc2nc(Cc3nnc(SCC(=O)c4ccc(C)cc4)o3)cs2)cc1  Sialate O-acetylesterase (Homo sapiens) (UniProt Q9HAT2)      18.2
